src = PubChem BioAssay (NCI)

For each of the compounds below, state its TGI.
System: MDA-MB-231 breast
test_details: NCI tumour cell line growth inhibition, 48 h
Answers are plain numbers, in µM.

Hi there! I need TGI for each item below, if you can.
1. C[n+]1c(/C=C/c2c[nH]c3ccccc23)ccc2ccccc21
2. C[C@]12CC[C@@H]3c4cc(OC(F)F)c(O)cc4CC[C@H]3[C@@H]1CC[C@@H]2OS(N)(=O)=O
3. C=C1CCCC2[C@](C)(CC3=C(Cl)C(=O)C=C(OC)C3=O)C(C)CC[C@]12C (some centres undefined)
4. C[C@]12CCc3nc(Nc4cccc(O)c4)sc3C1=CC[C@@H]1[C@@H]2CC[C@]2(C)/C(=N\NC(N)=S)CC[C@@H]12
5. CC1=NN(c2nc(N)nc(CBr)n2)C(C)(C)C1

Out:
[23, 41.5, 16.9, 4.95, 19.8]

====

Tested on: SR leukemia
test_details: NCI tumour cell line growth inhibition, 48 h; in the data active = GI50 below about 0.43 µM; inactive = the rest
Parameter call: string, one of 1.0 = active, 0.0 = inactive

compound | experimental_system | qualitative_label
Cc1ccc(Cl)cc1Nc1nc(C(F)(F)F)ccc1C(=O)N/N=C/c1cccnc1 | SR leukemia | 1.0
COc1ccc(N=Cc2c(O)ccc3c2oc2cc(Cl)c(O)c(Cl)c23)cc1 | SR leukemia | 0.0
OC(c1cc(-c2cccc(Cl)c2)nc2ccccc12)C1CCCCN1 (configuration not stated) | SR leukemia | 0.0
CCOC(=O)[C@@H](C)C[C@H](Cc1ccccc1)NC(=O)c1nc([C@@H](C[C@H](C(C)C)N(C)C(=O)[C@@H](NC(=O)[C@H]2CCCCN2C)C(C)C)OC(C)=O)sc1CCOCc1ccccc1 | SR leukemia | 1.0
CN(C)c1ccc(/C=C/c2ccnc3c(O)cccc23)cc1 | SR leukemia | 1.0

In: For this compound, state the assay outcome: `Cc1cc(=O)[nH]c(N/N=C/c2cc(Br)ccc2O)n1`
Out: 0.0

In: # fetch the recorded call for `Cc1cc(Cl)cc2c(N=Nc3ccc(S(N)(=O)=O)cc3)c(O)[nH]c12` here
Out: 0.0

In: Could you check what this test reported for `O=C(/C=C/c1ccco1)c1cc(F)c(Cl)cc1Cl` ?
Out: 0.0

In: Check the results log: what was the call for `O=c1cc(-c2ccccc2)oc2ccc(OC/C(=N/O)c3ccccc3)cc12` ?
Out: 0.0

In: Which result was noted for this compound in the test: `CO/C=C/C(=O)c1cc2cnc3c(=N)cc(NC(=O)C(C)C)c([nH]1)c23`
Out: 1.0

In: What classification did `Nc1ccccc1NC(=O)c1ccc(CNc2nccc(-c3cccnc3)n2)cc1` end up with in this test?
Out: 1.0

In: What classification did `N#Cc1c(NC(=O)NCc2ccccc2)sc2c1CCCC2` end up with in this test?
Out: 1.0

====

System: SN12C renal
test_details: NCI tumour cell line growth inhibition, 48 h; in the data active = GI50 below about 0.43 µM; inactive = the rest
Classes to choose from: active, inactive

Some solved cases for reference:
molecule | experimental_system | qualitative_label
Cc1cc(Cl)cc2c(N=Nc3ccc(S(N)(=O)=O)cc3)c(O)[nH]c12 | SN12C renal | inactive
CCC(CC)c1nc(Nc2ccc(C(=O)OC)cc2)c2ccccc2n1 | SN12C renal | inactive
COc1cc2nccc(Oc3ccc(NC(=O)NC4CC4)c(Cl)c3)c2cc1C(N)=O | SN12C renal | inactive
COC(=O)[C@@H](C)C[C@H](Cc1cn(C)c2ccccc12)NC(=O)c1csc([C@@H](C[C@H](C(C)C)N(C)C(=O)[C@@H](NC(=O)[C@H]2CCCCN2C)C(C)C)OC(C)=O)n1 | SN12C renal | active
CSc1ccc(-c2ccccc(=O)c2O)cc1 | SN12C renal | inactive
COC1C(CO)OC(n2c3ccccc3c3c4c(c5c6ccccc6[nH]c5c32)C(=O)NC4=O)C(O)C1O (centres undefined) | SN12C renal | active
Cc1ccc(Cl)cc1Nc1nc(C(F)(F)F)ccc1C(=O)N/N=C/c1cccnc1 | SN12C renal | inactive
NC1=CC(=O)c2cccnc2C1=O | SN12C renal | inactive
CCOC(=O)C1=C(C)N=c2s/c(=C\c3ccccc3O)c(=O)n2C1c1ccc(OC)c2ccccc12 (centres undefined) | SN12C renal | inactive
O=C(/C=C/c1ccco1)c1cc(F)c(Cl)cc1Cl | SN12C renal | inactive

Let us examine a further case.
In: Recorded test outcome, item `Cc1cccc(-c2[nH]ncc2-c2ccc3ncccc3n2)n1`
Out: inactive

====

Tested on: 786-0 renal
test_details: NCI tumour cell line growth inhibition, 48 h
reported_endpoint: GI50

molecule | reported_endpoint | result
CC[C@H](NC(=O)[C@H]1CCCCN1C)C(=O)N(C)[C@H](C[C@@H](OC(C)=O)c1nc(C(=O)N[C@@H](Cc2ccccc2)C[C@H](C)C(=O)O)cs1)C(C)C | GI50 | 8.68 nM
COc1ccc(C(=O)Nc2ncc(Cc3cccc(Cl)c3)s2)cc1OC | GI50 | 1330 nM
O=S(=O)([O-])c1ccc(N=Cc2ccccc2[O-])cc1.O=S(=O)([O-])c1ccc(N=Cc2ccccc2[O-])cc1.[O]=[U+2]=[O] | GI50 | 42700 nM

// switching to the query compound
In: Request the reported GI50 associated with `NCCCNc1nc2ccccc2c2c(=O)c3cc(F)cc(F)c3sc12`
Out: 1490 nM

====

Test system: SK-OV-3 ovarian
test_details: NCI tumour cell line growth inhibition, 48 h; in the data active = GI50 below about 0.43 µM; inactive = the rest
Thanks in advance; please answer with one of these: active, inactive

compound | experimental_system | qualitative_label
C[C@]12CCc3nc(Nc4cccc(O)c4)sc3C1=CC[C@@H]1[C@@H]2CC[C@]2(C)/C(=N\NC(N)=S)CC[C@@H]12 | SK-OV-3 ovarian | inactive

In: Write down the call the test reported for this compound. Item: `O=C(/C=C/c1ccco1)c1cc(F)c(Cl)cc1Cl`
Out: inactive

In: Call for entry `COc1cc2nccc(Oc3ccc(NC(=O)NC4CC4)c(Cl)c3)c2cc1C(N)=O` :
Out: inactive

In: Returns: the outcome recorded for `CSC1=Nc2c(c(C)c(-c3ccccc3)n2CCCN2CCCCC2)C2=NC(=O)C[C@H](C)N12` in this assay.
Out: inactive

In: Dear all, I need the recorded test outcome for `O=C(COc1ccc(/C=C2\COc3ccccc3C2=O)cc1)Nc1nccs1` , thank you.
Out: inactive

In: What was the test verdict on `COc1ccc(N=Cc2c(O)ccc3c2oc2cc(Cl)c(O)c(Cl)c23)cc1` ?
Out: inactive

In: Recorded test call requested for COC1C(CO)OC(n2c3ccccc3c3c4c(c5c6ccccc6[nH]c5c32)C(=O)NC4=O)C(O)C1O (stereo not drawn)
Out: active

In: Status in this test for `C[C@]12CC[C@@H]3c4cc(OC(F)F)c(O)cc4CC[C@H]3[C@@H]1CC[C@@H]2OS(N)(=O)=O` ?
Out: inactive

In: Any idea what this test logged for c1ccc(N2N=C(c3cccc(Nc4ccncc4)c3)CC2c2ccc3c(c2)OCO3)cc1 (stereo not drawn) ?
Out: inactive

In: Assay outcome for CCOC(=O)C1=C(C)N=c2s/c(=C\c3ccccc3O)c(=O)n2C1c1ccc(OC)c2ccccc12 (stereo not drawn) : what was it?
Out: inactive

In: Lab log entry: `CSc1ccc(-c2ccccc(=O)c2O)cc1` — outcome as called in the assay?
Out: inactive

In: Tell me the recorded outcome of this test for C=CCC(N[C@@H](CO)c1ccccc1)c1cn(Cc2ccccc2Cl)c(=O)n(Cc2ccccc2Cl)c1=O (stereo partly drawn) .
Out: inactive

In: Query: recorded result category for `O=c1cc(-c2ccccc2)oc2ccc(OC/C(=N/O)c3ccccc3)cc12` in this test
Out: inactive

In: Field: outcome | Entry: CCCCCCCC/C=C/CCCCCCCC1=NC(C)(C)CN1CC(C)O (stereo not drawn)
Out: inactive

====

System: NCI-H23 lung
test_details: NCI tumour cell line growth inhibition, 48 h
Please provide measured TGI for the entries that follow.

Sample records with TGI:
molecule | TGI
N#C[C@H](C(=O)c1ccccc1F)c1nc2ccccc2s1 | > 100 µM
COc1ccc(-c2csc(=Nc3ccccc3)n2CCCN(C)C)cc1 | 48.5 µM
CC1=C(O)c2cn(C)cc2C(=O)C1=O | > 100 µM

Could I get TGI for every one of these entries?
1. CC(=O)Nc1ccccc1-c1nc2ccccc2nc1C
2. O=[N+]([O-])c1ccc(-c2cc(O)c3nc4ccccc4n3c2)cc1
3. COc1ccc(N=C2S/C(=N\C(=Nc3ccccc3)SCc3ccccc3)N(c3ccccc3)C2=Nc2ccc(OC)cc2)cc1
4. O=C1/C(=C\c2ccc(F)cc2)CN(C(=O)c2ccccc2)C/C1=C\c1ccc(F)cc1
5. CCOC(=O)c1ccc2c(c1)Cc1cc([N+](=O)[O-])ccc1-2
6. NC(=O)C(=O)c1ncn(Cc2ccccc2)c1N

Out:
1: > 100 µM; 2: > 100 µM; 3: > 100 µM; 4: 21.8 µM; 5: > 100 µM; 6: > 100 µM
